Below, each entry is listed with its recorded inhibition at 1 µM.
- TARGET_ENTITY: UniProt O08914
- Sequence (O08914 1-579): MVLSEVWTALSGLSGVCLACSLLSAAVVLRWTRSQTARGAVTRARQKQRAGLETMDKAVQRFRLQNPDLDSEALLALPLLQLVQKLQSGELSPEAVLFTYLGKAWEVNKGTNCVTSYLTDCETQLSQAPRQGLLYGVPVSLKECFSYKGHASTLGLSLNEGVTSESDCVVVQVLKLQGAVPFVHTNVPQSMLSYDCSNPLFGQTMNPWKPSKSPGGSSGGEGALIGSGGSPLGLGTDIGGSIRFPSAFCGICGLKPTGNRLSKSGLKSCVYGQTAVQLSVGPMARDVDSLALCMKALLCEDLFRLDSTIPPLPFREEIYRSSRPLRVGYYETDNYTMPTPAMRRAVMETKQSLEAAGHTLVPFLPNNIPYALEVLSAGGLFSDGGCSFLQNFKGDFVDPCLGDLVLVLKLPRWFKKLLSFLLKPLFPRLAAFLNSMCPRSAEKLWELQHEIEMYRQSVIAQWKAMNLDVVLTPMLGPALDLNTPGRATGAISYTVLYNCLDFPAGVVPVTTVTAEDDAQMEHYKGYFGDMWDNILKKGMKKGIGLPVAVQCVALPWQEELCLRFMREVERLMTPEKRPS
- ASSAY_REMARKS: In vitro competitive activity-based protein profiling (Table 2, % inhibition at 1 μM)
- Format: biochemical
- MEASUREMENT_CONDITIONS: read-out: % Inhibition at 1 μM FAAH
RECORDED_METRIC: inhibition at 1 µM

CCn1cc(CN2CC3CN(C(=O)OC(C(F)(F)F)C(F)(F)F)CC3C2)c(C(=O)NC2CC2)n1 (stereo not drawn) [Example 77] | < 25%
Cc1cccc(CN2CC3CN(C(=O)OC(C(F)(F)F)C(F)(F)F)CC3C2)c1N1CCC2(CCOC2)C1 (stereo not drawn) [Example 40] | < 25%
Cc1c(CN2CC3CN(C(=O)OC(C(F)(F)F)C(F)(F)F)CC3C2)cccc1N1CCC(NS(C)(=O)=O)CC1 (stereo not drawn) [Example 149] | 25 to 75%
O=C(OC(C(F)(F)F)C(F)(F)F)N1CC2CN(Cc3cc(CN4CCCCC4)cc(OC(F)(F)F)c3)CC2C1 (stereo not drawn) [Example 184] | < 25%
O=C(ON1C(=O)CCC1=O)N1CC2CN(Cc3ccc(C(=O)N4CCOCC4)cc3Cl)CC2C1 (stereo not drawn) [Example 163] | < 25%
Cn1nc(-c2ccccc2)cc1CN1CC2CN(C(=O)OC(C(F)(F)F)C(F)(F)F)CC2C1 (stereo not drawn) [Example 194] | 25 to 75%
CC(=O)N1CC2(CCN(c3ccccc3CN3CC4CN(C(=O)OC(C(F)(F)F)C(F)(F)F)CC4C3)C2)C1 (stereo not drawn) [Example 137] | < 25%
O=C(ON1C(=O)CCC1=O)N1CC2CN(Cc3ccc(Cl)cc3N3CCC4(CCOCC4)C3)CC2C1 (stereo not drawn) [Example 106] | < 25%
O=C(ON1C(=O)CCC1=O)N1CC2CN(Cc3ccc(Cl)cc3N3CCC3)CC2C1 (stereo not drawn) [Example 113] | < 25%
CC(C)n1cc(CN2CC3CN(C(=O)ON4C(=O)CCC4=O)CC3C2)c(-c2ccccc2Cl)n1 (stereo not drawn) [Example 118] | < 25%
CC(=O)N1CCC(c2nn(C(C)C)cc2CN2CC3CN(C(=O)OC(C(F)(F)F)C(F)(F)F)CC3C2)CC1 (stereo not drawn) [Example 55] | < 25%
O=C(OC(C(F)(F)F)C(F)(F)F)N1CC2CN(Cc3ccc(N4CCOCC4)cc3C(F)(F)F)CC2C1 (stereo not drawn) [Example 10] | 25 to 75%
CCn1ncc(CN2CC3CN(C(=O)OC(C(F)(F)F)C(F)(F)F)CC3C2)c1C(=O)NCc1ccccc1 (stereo not drawn) [Example 75] | < 25%
O=C(ON1C(=O)CCC1=O)N1CC2CN(Cc3ccc(C(=O)N4CCCCC4)cc3Cl)CC2C1 (stereo not drawn) [Example 161] | 25 to 75%
O=C(OC(C(F)(F)F)C(F)(F)F)N1CC2CN(Cc3ccc(Cl)cc3N3CCC(C(=O)N4CCCC4)CC3)CC2C1 (stereo not drawn) [Example 37] | 25 to 75%

* * *

- TARGET_ENTITY: ABHD6 (Mus musculus, UniProt Q8R2Y0)
- Sequence (Q8R2Y0 whole entry): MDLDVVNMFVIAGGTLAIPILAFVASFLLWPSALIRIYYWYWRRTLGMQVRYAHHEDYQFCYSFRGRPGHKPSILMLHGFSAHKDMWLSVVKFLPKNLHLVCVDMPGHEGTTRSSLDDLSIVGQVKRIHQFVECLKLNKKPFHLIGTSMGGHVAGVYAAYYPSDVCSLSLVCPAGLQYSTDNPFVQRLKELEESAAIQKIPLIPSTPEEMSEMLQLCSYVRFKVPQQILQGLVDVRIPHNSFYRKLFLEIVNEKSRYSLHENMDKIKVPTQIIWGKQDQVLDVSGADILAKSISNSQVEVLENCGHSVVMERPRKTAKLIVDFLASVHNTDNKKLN
- ASSAY_REMARKS: biochemical
- MEASUREMENT_CONDITIONS: in vitro competitive ABPP
RECORDED_METRIC: IC50

CCn1ncc(CN2CC3CN(C(=O)OC(C(F)(F)F)C(F)(F)F)CC3C2)c1C(=O)NCc1ccccc1 (stereo not shown) [Example 75] | 100 to 1000 nM
O=C(OC(C(F)(F)F)C(F)(F)F)N1CC2CN(Cc3cccc(Cl)c3N3C4CCC3COC4)CC2C1 (stereo not shown) [Example 43] | 1000 to 10000 nM
O=C(ON1C(=O)CCC1=O)N1CC2CN(Cc3ccc(N4CCOCC4)cc3F)CC2C1 (stereo not shown) [Example 79] | 1000 to 10000 nM
O=C(OC(C(F)(F)F)C(F)(F)F)N1CC2CN(Cc3ccc(Cl)cc3N3CCn4ncnc4C3)CC2C1 (stereo not shown) [Example 34] | 100 to 1000 nM

* * *

Below, each entry is listed with its recorded inhibition at 1 µM.
- TARGET_ENTITY: MAGL (Mus musculus, UniProt O35678)
- Sequence (O35678 whole entry): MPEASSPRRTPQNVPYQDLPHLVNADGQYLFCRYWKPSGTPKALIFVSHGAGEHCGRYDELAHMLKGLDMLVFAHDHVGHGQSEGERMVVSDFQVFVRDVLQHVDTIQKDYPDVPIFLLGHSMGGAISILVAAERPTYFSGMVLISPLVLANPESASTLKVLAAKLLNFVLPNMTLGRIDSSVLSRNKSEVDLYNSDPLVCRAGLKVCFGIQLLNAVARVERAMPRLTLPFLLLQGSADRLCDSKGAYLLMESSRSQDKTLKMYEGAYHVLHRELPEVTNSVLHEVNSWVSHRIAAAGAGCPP
- ASSAY_REMARKS: In vitro competitive activity-based protein profiling (Table 2, % inhibition at 1 μM)
- Assay type: biochemical
- MEASUREMENT_CONDITIONS: read-out: % Inhibition at 1 μM MAGL
RECORDED_METRIC: inhibition at 1 µM

CCn1cc(CN2CC3CN(C(=O)OC(C(F)(F)F)C(F)(F)F)CC3C2)c(-c2cccc(N3CCOCC3)c2)n1 (stereo not shown) | > 75%
CCN1CCN(c2c(C)cccc2CN2CC3CN(C(=O)OC(C(F)(F)F)C(F)(F)F)CC3C2)CC1 (stereo not shown) | > 75%
O=C(OC(C(F)(F)F)C(F)(F)F)N1CC2CN(Cc3cccc(Cl)c3N3CCC(F)(F)CC3)CC2C1 (stereo not shown) | > 75%
CC(=O)N1CCN(c2ccc(CN3CC4CN(C(=O)OC(C(F)(F)F)C(F)(F)F)CC4C3)c(F)c2)CC1 (stereo not shown) | > 75%
O=C(OC(C(F)(F)F)C(F)(F)F)N1CC2CN(Cc3ccc(N4CCOCC4)cc3C(F)(F)F)CC2C1 (stereo not shown) | > 75%
O=C(ON1C(=O)CCC1=O)N1CC2CN(Cc3ccc(Cl)cc3N3CCN4CCC[C@@H]4C3)CC2C1 (stereo partly shown) | < 25%
O=C(OC(C(F)(F)F)C(F)(F)F)N1CC2CN(Cc3ccc(C(F)F)cc3N3CCOCC3)CC2C1 (stereo not shown) | > 75%

* * *

- TARGET_ENTITY: MAGL (Mus musculus, UniProt O35678)
- ASSAY_REMARKS: In vitro competitive activity-based protein profiling (Table 2, % inhibition at 1 μM)
- Type: biochemical
- MEASUREMENT_CONDITIONS: read-out: % Inhibition at 1 μM MAGL
RECORDED_METRIC: inhibition at 1 µM

CCn1cc(CN2CC3CN(C(=O)OC(C(F)(F)F)C(F)(F)F)CC3C2)c(-c2cccnc2)n1 (stereo not shown) | > 75%
CC(=O)N1CCN(c2cccc(CN3CC4CN(C(=O)ON5C(=O)CCC5=O)CC4C3)c2C)CC1 (stereo not shown) | < 25%
O=C(OC(C(F)(F)F)C(F)(F)F)N1CC2CN(Cc3cccc(N4CCC5(CCOC5)C4)c3Cl)CC2C1 (stereo not shown) | > 75%
Cc1c(CN2CC3CN(C(=O)OC(C(F)(F)F)C(F)(F)F)CC3C2)cccc1N1CCOCC1 (stereo not shown) | > 75%

* * *

- TARGET_ENTITY: MAGL (Mus musculus, UniProt O35678)
- ASSAY_REMARKS: biochemical
- MEASUREMENT_CONDITIONS: mouse; in vitro competitive ABPP; read-out: Mouse (IC50 value, nM) MAGL
Below, each entry is listed with its recorded IC50.
RECORDED_METRIC: IC50

CCn1cc(CN2CC3CN(C(=O)OC(C(F)(F)F)C(F)(F)F)CC3C2)c(-c2ccncc2)n1 (stereo not shown) | < 100 nM
O=C(OC(C(F)(F)F)C(F)(F)F)N1CC2CN(Cc3cc(CN4CCCC4)cc(OC(F)(F)F)c3)CC2C1 (stereo not shown) | 100 to 1000 nM
O=C(OC(C(F)(F)F)C(F)(F)F)N1CC2CN(Cc3cccc(Cl)c3N3CCOCC3)CC2C1 (stereo not shown) | < 100 nM
CC(=O)N1CCN(c2cc(F)ccc2CN2CC3CN(C(=O)OC(C(F)(F)F)C(F)(F)F)CC3C2)CC1 (stereo not shown) | 100 to 1000 nM
